Recorded values, source ChEMBL document CHEMBL4359828.

- Test system: Coxsackievirus A24
- protocol-text: Antiviral activity against Coxsackievirus A24
- Type: functional, organism-based
- measurement-parameters: Enterovirus C
observed-property: IC50

>>> df
                                     mol  observed_property  recorded_result
0  O=C1N(CCCCCOc2ccc(Br)cc2)CCN1c1ccncc1               IC50    470 to 550 nM

---

- Tested on: Poliovirus 2
- protocol-text: Antiviral activity against Human poliovirus 2 infected in mouse
- Assay type: functional, organism-based
- measurement-parameters: Enterovirus C
observed-property: IC50

                                  mol  target_or_system  observed_property  recorded_result
0  COc1ccc(OCCCCCCCc2cc(C)no2)c(Cl)c1      Poliovirus 2               IC50     40 to 150 nM

---

Reported values of pIC50 for individual entries
- Test system: rhinovirus B5
- protocol-text: Antiviral activity against Human rhinovirus B5
- Type: functional, organism-based
- measurement-parameters: Rhinovirus B
pIC50: −log10 of the molar value.
observed-property: pIC50

>>> print(df.to_string())
                                        mol  observed_property  recorded_result
0  Cc1cc(CCCOc2c(C)cc(-c3cccc([N+](=O)[O-])c3)cc2C)on1              pIC50             6.46
1    Cc1cc(CCCOc2c(C)cc(-c3ccccc3F)cc2C)on1              pIC50             6.96
2  Cc1cc(CCCOc2c(C)cc(-c3ccc(F)cc3)cc2C)on1              pIC50             6.96
3  Cc1ccc(-c2cc(C)c(OCCCc3cc(C)no3)c(C)c2)cc1              pIC50             6.96
4  Cc1cc(CCCOc2c(C)cc(-c3ccc(Cl)cc3)cc2C)on1              pIC50             6.96
5  Cc1cc(CCCOc2c(C)cc(-c3ccc([N+](=O)[O-])cc3)cc2C)on1              pIC50             6.12
6  Cc1cc(CCCOc2c(C)cc(-c3cccc(O)c3)cc2C)on1              pIC50             6.36
7  Cc1cc(CCCOc2c(C)cc(-c3ccc(O)cc3)cc2C)on1              pIC50             6.11

---

- System: Human rhinovirus sp.
- protocol-text: Antiviral activity against Human rhinovirus clinical isolates
- Type: functional, organism-based
observed-property: EC50 (nM)

In [3]: df
Out[3]:
                                        mol  observed_property  recorded_result
0  COc1ccc(OCc2ccc(COc3c(Cl)cccc3Cl)cc2)c(Cl)c1               EC50              900

---

- Tested on: Poliovirus 2
- protocol-text: Antiviral activity against Human poliovirus 2
- Type: functional, organism-based
- measurement-parameters: Enterovirus C
observed-property: IC50 (nM)

>>> df
                                    mol  target_or_system  recorded_result
0    Cc1cc(CCCCCOc2ccc(C3=NCCO3)cc2)on1      Poliovirus 2                3
1   Cc1cc(CCCCCCOc2ccc(C3=NCCO3)cc2)on1      Poliovirus 2                8
2  Cc1cc(CCCCCCCOc2ccc(C3=NCCO3)cc2)on1      Poliovirus 2                4

---

- protocol-text: Antiviral activity against Human rhinovirus B3
- Assay type: functional
pIC50: −log10 of the molar value.
observed-property: pIC50

In [3]: df
Out[3]:
                                        mol  observed_property  recorded_result
0  Cc1cc(CCCOc2c(C)cc(-c3ccc(O)cc3)cc2C)on1              pIC50             6.11
1  Cc1cc(CCCOc2c(C)cc(-c3ccc([N+](=O)[O-])cc3)cc2C)on1              pIC50             6.12
2  Cc1cc(CCCOc2c(C)cc(-c3cccc(O)c3)cc2C)on1              pIC50             6.36
3  Cc1cc(CCCOc2c(C)cc(-c3ccc(Cl)cc3)cc2C)on1              pIC50             6.92
4  Cc1cc(CCCOc2c(C)cc(-c3ccc(F)cc3)cc2C)on1              pIC50             6.92
5  Cc1cc(CCCOc2c(C)cc(-c3cccc([N+](=O)[O-])c3)cc2C)on1              pIC50             6.46
6  Cc1ccc(-c2cc(C)c(OCCCc3cc(C)no3)c(C)c2)cc1              pIC50             6.92
7    Cc1cc(CCCOc2c(C)cc(-c3ccccc3F)cc2C)on1              pIC50             6.92

---

- Tested on: Enterovirus
- protocol-text: Antiviral activity against Rhinovirus
- Type: functional, organism-based
observed-property: IC50

                                    mol  observed_property  recorded_result
0  Cc1cc(CCCCCCCOc2ccc(C3=NCCO3)cc2)on1               IC50  0.004 to 6.2 µM

---

- Tested on: Enterovirus A71
- protocol-text: Antiviral activity against Enterovirus A71
- Assay type: functional, organism-based
- measurement-parameters: Enterovirus A
Recorded EC50, one value per entry.
observed-property: EC50 (nM)

                                   compound  target_or_system  observed_property  units_label  recorded_result
0  CCc1nc(-c2ccc(OCCC(C)CCN3CCN(c4ccncc4)C3=O)cc2)no1 (configuration not stated)   Enterovirus A71               EC50           nM              0.5
1  Cc1nc(-c2ccc(OCCC(C)CCN3CCN(c4ccncc4)C3=O)cc2)no1 (configuration not stated)   Enterovirus A71               EC50           nM              0.9

---

- protocol-text: Antiviral activity against Human rhinovirus A8
- Format: functional
pIC50: −log10 of the molar value.
observed-property: pIC50

                                        mol  recorded_result
0  Nc1nc(-c2ccccc2)nc2[nH]nc(Nc3ccc(C(F)(F)F)cc3)c12     6.19 to 7.40

---

- Test system: Poliovirus 2
- protocol-text: Antiviral activity against Human poliovirus 2
- Format: functional, organism-based
- measurement-parameters: Enterovirus C
pIC50: −log10 of the molar value.
// pIC50 lookup, one value per entry
observed-property: pIC50

>>> df
                                   compound  observed_property  recorded_result
0  Cc1cc(CCCCCCCOc2ccc(C3=NC(CO)CO3)cc2)on1 (centres undefined)              pIC50     5.59 to 6.05
1  Cc1cc(CCCCCCCOc2ccc(C3=NC(C)(C)CO3)cc2)on1              pIC50     6.92 to 7.00
2  Cc1cc(CCCCCCCOc2ccc(C3=NC(C)CO3)cc2)on1 (centres undefined)              pIC50     6.92 to 7.00
3  Cc1cc(CCCCCCCOc2ccc(C3=NCC(CO)O3)cc2)on1 (centres undefined)              pIC50     5.59 to 6.05
